Assay: Antiproliferative activity against tamoxifen-resistant human LCC2 cells assessed as reduction in cell viability measured after 72 hrs by Cell Counting Kit-8 assay
Format: functional, cell-based
Details: LCC2, 72 h
For each entry below, report its IC50 value.

Recorded IC50, per entry:
compound="O=S(=O)(Oc1ccccc1)C1CC2OC1C(c1ccc(O)cc1)=C2c1ccc(O)cc1 (centres undefined)" recorded_result="> 31 µM"
compound="COc1cccc(OS(=O)(=O)C2CC3OC2C(c2ccc(O)cc2)=C3c2ccc([Se]c3ccccc3)cc2)c1 (centres undefined)" recorded_result="4.8 µM"
compound="O=S(=O)(Oc1ccc(C(F)(F)F)cc1)C1CC2OC1C(c1ccc(O)cc1)=C2c1ccc([Se]c2ccccc2)cc1 (centres undefined)" recorded_result="> 31 µM"
compound="O=S(=O)(Oc1cccc([Se]c2ccccc2)c1)C1CC2OC1C(c1ccc(O)cc1)=C2c1ccc(O)cc1 (centres undefined)" recorded_result="> 31 µM"
compound=CC/C(=C(\c1ccc(O)cc1)c1ccc(OCCN(C)C)cc1)c1ccccc1 recorded_result="22.2 µM"

# return IC50 for each item in the list
1. O=S(=O)(Oc1cccc(Br)c1)C1CC2OC1C(c1ccc([Se]c3ccccc3)cc1)=C2c1ccc(O)cc1 (centres undefined)
2. O=S(=O)(Oc1cccc(O)c1)C1CC2OC1C(c1ccc(O)cc1)=C2c1ccc([Se]c2ccccc2)cc1 (centres undefined)
3. O=S(=O)(Oc1cccc(C(F)(F)F)c1)C1CC2OC1C(c1ccc([Se]c3ccccc3)cc1)=C2c1ccc(O)cc1 (centres undefined)
4. COc1ccc(OS(=O)(=O)C2CC3OC2C(c2ccc([Se]c4ccccc4)cc2)=C3c2ccc(O)cc2)cc1 (centres undefined)
5. O=S(=O)(Oc1ccc(O)cc1)C1CC2OC1C(c1ccc(O)cc1)=C2c1ccc([Se]c2ccccc2)cc1 (centres undefined)
6. O=S(=O)(Oc1ccc(Cl)cc1)C1CC2OC1C(c1ccc([Se]c3ccccc3)cc1)=C2c1ccc(O)cc1 (centres undefined)

result:
1. > 31 µM
2. 2.88 µM
3. 8.76 µM
4. 5.92 µM
5. > 31 µM
6. 6.88 µM
